procedure.details: Compound stability in human liver microsomes
Type: in vitro ADME
test.settings: pH 7.4; human liver microsomes; in vivo CLint extrapolated
observable: CLint scaled at 5 μM (mL/min/kg)

Cn1cc(Nc2ncc(Cl)c(N[C@H]3COC4C3OC[C@H]4NS(=O)(=O)CC(F)(F)F)n2)cn1 (stereo partly shown) [Ex. 5] yielded CLint scaled at 5 μM of 7.16

1 = Cn1cc(Nc2ncc(Cl)c(N[C@@H]3COC4C3OC[C@@H]4NS(=O)(=O)CC(C)(C)C#N)n2)cn1 (stereo partly shown) [Ex. 26]
2 = Cn1cc(Nc2ncc(Cl)c(N[C@@H]3COC4C3OC[C@@H]4NS(=O)(=O)CC(F)(F)F)n2)cn1 (stereo partly shown) [Ex. 27]
3 = Cn1cc(Nc2ncc(Cl)c(N[C@@H]3COC4C3OC[C@@H]4N3CCCC3=O)n2)cn1 (stereo partly shown) [Ex. 22]
Exercise: Rank the 3 molecules: largest CLint scaled at 5 μM first, smallest last. Your task in answering is to list the labels in the requested order.
Key: 1, 2, 3
